Values compiled from patent US20060046981A1.

System: HEL cells
Assay: Antiproliferation assay (7 days, Sulforhodamine B) in HEL fibroblasts
Format: cell-based, human
Settings: Table 79-2; 7 days; read-out: Antiproliferation EC50 HEL lung fibroblast
measure: pEC50
Give bare numbers, as −log10 of the molar value.

Q: For C[C@@]1(CO)[C@H](O)CC[C@@]2(C)[C@H]1CC[C@H]1C[C@@H]3C[C@@]12CC[C@]3(O)CO [Aphidicolin (+), Aphidicolin] , what is its reported pEC50?
Result: 6.49

----------
So I've got a bunch of molecules here, and I need their EC50 values.
Tested on: HEL cells
Assay: Antiproliferation assay (7 days, Sulforhodamine B) in HEL fibroblasts
Format: cell-based, human
Settings: Homo sapiens, HEL, 168 h; Table 79-2; 7 days; read-out: Antiproliferation EC50 HEL lung fibroblast
Reply with the number, then its unit.

>  <smilesEntry>
CC[C@]1(O)C[C@@H]2CN(CCc3c([nH]c4ccccc34)[C@@](C(=O)OC)(c3cc4c(cc3OC)N(C)[C@H]3[C@@](O)(C(=O)OC)[C@H](OC(C)=O)[C@]5(CC)C=CCN6CC[C@]43[C@@H]65)C2)C1

>  <val>
0.27 nM

$$$$
>  <smilesEntry>
COc1cccc2c1C(=O)c1c(O)c3c(c(O)c1C2=O)C[C@@](O)(C(=O)CO)C[C@@H]3O[C@H]1C[C@H](N)[C@H](O)[C@H](C)O1

>  <val>
4.2 nM

$$$$
>  <smilesEntry>
Nc1nc2c(ncn2CCOCP(=O)(O)O)c(=O)[nH]1

>  <val>
861 nM

$$$$

Please examine the following record next.
Q: Field request: EC50 | item: `C[C@H]1O[C@@H](n2cc(F)c(=O)[nH]c2=O)[C@H](O)[C@@H]1O`
Result: 3930 nM

----------
Test system: HEL cells
Assay: Antiproliferation assay (7 days, Sulforhodamine B) in HEL fibroblasts
Type: cell-based, human
Details: Homo sapiens, HEL, 168 h; Table 79-2; 7 days; read-out: Antiproliferation EC50 HEL lung fibroblast
pEC50: −log10 of the molar value.
Criterion: pEC50 meeting or surpassing 6. Met: criterion met. Not met: criterion not met.

Some solved entries appear below for comparison.
>  <molecule>
Nc1ccn(C[C@@H](CO)OCP(=O)(O)O)c(=O)n1 [Cidofovir]

>  <group>
criterion not met

$$$$
>  <molecule>
Cc1c2ccncc2c(C)c2c1[nH]c1ccccc12 [Ellipticine]

>  <group>
criterion met

$$$$

Q: Textbook exercise: given the entry CN(C)/N=N/c1[nH]cnc1C(N)=O [Dacarba-zine, Dacarbazine] , state whether its pEC50 is greater than or equal to 6.
Result: criterion not met

Q: Now consider CC[C@]1(O)C[C@H]2CN(CCc3c([nH]c4ccccc34)[C@@](C(=O)OC)(c3cc4c(cc3OC)N(C=O)[C@H]3[C@@](O)(C(=O)OC)[C@H](OC(C)=O)[C@]5(CC)C=CCN6CC[C@]43[C@@H]65)C2)C1 [Vincristine] and answer again.
Result: criterion met

----------
System: ME-180 cells
Experiment: Antiproliferation assay in ME-180 cells
Assay type: cell-based
Conditions: Homo sapiens, Table 79-4, read-out: Antiproliferation EC50 in HPV positive carcinoma cells ME-180 HPV39
measure: EC50 (nM)
Answers are plain numbers, in nM.

Q: Which measured EC50 value corresponds to Nc1ccn([C@@H]2O[C@H](CO)[C@@H](O)[C@@H]2O)c(=O)n1 [AraC, cytarabine] ?
Result: 101
